test system: 1A9/A8, EpoA-resistant 1A9 cell line (β274 Thr→Ile); experiment: 72 hour growth-inhibition (cytotoxicity) assay, 1A9/A8 cells; type: cell-based, human; details: IC50 of 1A9/A8 divided by IC50 of the parental cell line
I'd be grateful if you could share measured RRp (relative resistance), 1A9/A8 for these entries.
Give bare numbers.

Please review the entries below; each comes with its answer.
- C/C(=C\c1csc(C)n1)[C@@H]1C[C@@H]2O[C@]2(C)CCC[C@H](C)[C@H](O)[C@@H](C)C(=O)C(C)(C)[C@@H](O)CC(=O)O1 [EpoB, reference compound]: 10.1
- C/C(=C\c1ccn(-c2ccccc2)n1)[C@@H]1C[C@@H]2O[C@]2(C)CCC[C@H](C)[C@H](O)[C@@H](C)C(=O)C(C)(C)[C@@H](O)CC(=O)O1: 0.9
- CSCc1nc(/C=C(\C)[C@@H]2C[C@@H]3O[C@]3(C)CCC[C@H](C)[C@H](O)[C@@H](C)C(=O)C(C)(C)[C@@H](O)CC(=O)O2)cs1: 5.2
- C/C(=C\c1csc(C)n1)[C@@H]1C[C@@H]2O[C@@H]2CCC[C@H](C)[C@H](O)[C@@H](C)C(=O)C(C)(C)[C@@H](O)CC(=O)O1 [EpoA, reference compound]: 17.1
- CSc1cc(/C=C(\C)[C@@H]2C[C@@H]3O[C@]3(C)CCC[C@H](C)[C@H](O)[C@@H](C)C(=O)C(C)(C)[C@@H](O)CC(=O)O2)nn1C: 10.0

List the reported RRp (relative resistance), 1A9/A8 of each molecule below.
1. CC(=O)SCc1nc(/C=C(\C)[C@@H]2C[C@@H]3O[C@]3(C)CCC[C@H](C)[C@H](O)[C@@H](C)C(=O)C(C)(C)[C@@H](O)CC(=O)O2)cs1
2. CSc1nc(/C=C(\C)[C@@H]2C[C@@H]3O[C@]3(C)CCC[C@H](C)[C@H](O)[C@@H](C)C(=O)C(C)(C)[C@@H](O)CC(=O)O2)nc2c1ncn2C
3. COc1nc(/C=C(\C)[C@@H]2C[C@@H]3O[C@]3(C)CCC[C@H](C)[C@H](O)[C@@H](C)C(=O)C(C)(C)[C@@H](O)CC(=O)O2)nc2c1ncn2C

Reply:
1: 9.2; 2: 2.8; 3: 0.6

List the reported RRp (relative resistance), 1A9/A8 of each molecule below.
1. C/C(=C\c1nc(Cl)c2ncn(C)c2n1)[C@@H]1C[C@@H]2O[C@]2(C)CCC[C@H](C)[C@H](O)[C@@H](C)C(=O)C(C)(C)[C@@H](O)CC(=O)O1
2. C/C(=C\c1nccn1C)[C@@H]1C[C@@H]2O[C@]2(C)CCC[C@H](C)[C@H](O)[C@@H](C)C(=O)C(C)(C)[C@@H](O)CC(=O)O1
3. C/C(=C\c1nnn(COCc2ccccc2)n1)[C@@H]1C[C@@H]2O[C@]2(C)CCC[C@H](C)[C@H](O)[C@@H](C)C(=O)C(C)(C)[C@@H](O)CC(=O)O1

Reply:
1.1
2.5
4.2

* * *

test system: 1A9 human ovarian cancer cell line; experiment: 72 hour growth-inhibition (cytotoxicity) assay, 1A9 cells; assay type: cell-based; conditions: Homo sapiens, 1A9; 72 hour growth inhibition, sulforhodamine-B staining; mean of 3-5 independent experiments ± standard error of the mean; read-out: 1A9 IC50
metricName: IC50 (nM)
Give bare numbers, in nM.

- C/C(=C\c1ccn(C)n1)[C@@H]1C[C@@H]2O[C@]2(C)CCC[C@H](C)[C@H](O)[C@@H](C)C(=O)C(C)(C)[C@@H](O)CC(=O)O1 [Compound 14]: 0.5
- CC(=O)O[C@@]12CO[C@@H]1C[C@H](O)[C@@]1(C)C(=O)[C@H](O)C3=C(C)[C@@H](OC(=O)[C@H](O)[C@@H](NC(=O)OC(C)(C)C)c4ccccc4)C[C@@](O)([C@@H](OC(=O)c4ccccc4)[C@H]21)C3(C)C [Taxotere ™, reference compound]: 1.5
- CSc1cc(/C=C(\C)[C@@H]2C[C@@H]3O[C@]3(C)CCC[C@H](C)[C@H](O)[C@@H](C)C(=O)C(C)(C)[C@@H](O)CC(=O)O2)nn1C [Compound 16]: 0.06
- C/C(=C\c1ncnn1C)[C@@H]1C[C@@H]2O[C@]2(C)CCC[C@H](C)[C@H](O)[C@@H](C)C(=O)C(C)(C)[C@@H](O)CC(=O)O1 [Compound 9]: 540
- CSc1nc(/C=C(\C)[C@@H]2C[C@@H]3O[C@]3(C)CCC[C@H](C)[C@H](O)[C@@H](C)C(=O)C(C)(C)[C@@H](O)CC(=O)O2)nc2c1ncn2C [Compound 19]: 1

List the reported IC50 of each compound below.
1. C/C(=C\c1cn(C)cn1)[C@@H]1C[C@@H]2O[C@]2(C)CCC[C@H](C)[C@H](O)[C@@H](C)C(=O)C(C)(C)[C@@H](O)CC(=O)O1 [Compound 11]
2. CSCc1nc(/C=C(\C)[C@@H]2C[C@@H]3O[C@]3(C)CCC[C@H](C)[C@H](O)[C@@H](C)C(=O)C(C)(C)[C@@H](O)CC(=O)O2)cs1 [Compound 5]

Reply:
1: 181; 2: 3.6

List the reported IC50 of each compound below.
1. C/C(=C\c1nc2ccccc2s1)[C@@H]1C[C@@H]2O[C@]2(C)CCC[C@H](C)[C@H](O)[C@@H](C)C(=O)C(C)(C)[C@@H](O)CC(=O)O1 [Compound 7]
2. C/C(=C\c1ccn(-c2ccccc2)n1)[C@@H]1C[C@@H]2O[C@]2(C)CCC[C@H](C)[C@H](O)[C@@H](C)C(=O)C(C)(C)[C@@H](O)CC(=O)O1 [Compound 15]

Reply:
0.19
5.45

* * *

I'd be grateful if you could share measured IC50 for these entries.
system: 1A9 human ovarian cancer cell line; experiment: 72 hour growth-inhibition (cytotoxicity) assay, 1A9 cells; assay type: cell-based; conditions: Homo sapiens, 1A9; 72 hour growth inhibition, sulforhodamine-B staining; mean of 3-5 independent experiments ± standard error of the mean; read-out: 1A9 IC50
Give bare numbers, in nM.

* COc1nc(/C=C(\C)[C@@H]2C[C@@H]3O[C@]3(C)CCC[C@H](C)[C@H](O)[C@@H](C)C(=O)C(C)(C)[C@@H](O)CC(=O)O2)nc2c1ncn2C [Compound 18] | 3.7
* C/C(=C\c1nccn1C)[C@@H]1C[C@@H]2O[C@]2(C)CCC[C@H](C)[C@H](O)[C@@H](C)C(=O)C(C)(C)[C@@H](O)CC(=O)O1 [Compound 8] | 95.5
* C/C(=C\c1nc(Cl)c2ncn(C)c2n1)[C@@H]1C[C@@H]2O[C@]2(C)CCC[C@H](C)[C@H](O)[C@@H](C)C(=O)C(C)(C)[C@@H](O)CC(=O)O1 [Compound 17] | 3.7
* C/C(=C\c1nnn(COCc2ccccc2)n1)[C@@H]1C[C@@H]2O[C@]2(C)CCC[C@H](C)[C@H](O)[C@@H](C)C(=O)C(C)(C)[C@@H](O)CC(=O)O1 [Compound 20] | 4

Now let's try a different one.
Ask: Report measured IC50; entry is CC(=O)SCc1nc(/C=C(\C)[C@@H]2C[C@@H]3O[C@]3(C)CCC[C@H](C)[C@H](O)[C@@H](C)C(=O)C(C)(C)[C@@H](O)CC(=O)O2)cs1 [Compound 6]
Reply: 5.4
